assayedTarget: KRas^G12V (Homo sapiens, UniProt P01116, G12V)
Construct: […]; biotin (biotinylated)
Sequence (P01116 1-169 isoform P01116-2 G12V): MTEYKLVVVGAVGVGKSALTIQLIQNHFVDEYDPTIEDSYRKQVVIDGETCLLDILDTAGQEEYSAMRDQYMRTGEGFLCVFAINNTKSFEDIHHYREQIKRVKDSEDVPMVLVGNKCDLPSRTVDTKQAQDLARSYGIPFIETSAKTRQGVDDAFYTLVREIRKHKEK
test: KRas binding assay (TR-FRET displacement of Cy5 labelled tracer)
metricName: IC50 (nM)

CCc1c(F)ccc2cc(O)cc(N3CCc4c(nc(OC[C@@]56CCCN5C[C@H](F)C6)nc4N4CCC(c5[nH]ncc5N)C4)C3)c12 (stereo partly drawn)
4
Cc1cc2[nH]ncc2c(N2CCc3c(nc(OCC45CCCN4CCC5)nc3N3CCC[C@@](C)(O)C3)C2)c1C
103
CCc1cccc2cccc(N3CCc4c(nc(OCC56CCCN5CCC6)nc4N(C)CC4(O)CC4)C3)c12
341
Oc1cc(N2CCc3c(nc(OC[C@@]45CCCN4C[C@H](F)C5)nc3N3CC4CC(O)CC3C4)C2)c2c(Br)c(F)ccc2c1 (single isomer, unassigned) [Example 214]
118
CCc1cccc2cccc(N3CCc4c(nc(OCC56CCCN5CCC6)nc4N4CCCCC(C)C4)C3)c12 (stereo not drawn)
564
CCc1cccc2cccc(N3CCc4c(nc(OCC56CCCN5CCC6)nc4NCCNS(N)(=O)=O)C3)c12
2560

a = CCc1cccc2cccc(N3CCc4c(nc(OCC56CCCN5CCC6)nc4N4CC5CNC(=O)C5C4)C3)c12 (stereo not drawn)
b = CCc1cccc2cccc(N3CCc4c(nc(OCC56CCCN5CCC6)nc4NC4CN(c5ccccn5)C4)C3)c12
Select the item with the higher value of IC50 from the options a and b listed. Output the label that corresponds to your choice.
b
(b: 2550 nM, a: 348 nM)

I = CCc1cccc2cccc(N3CCc4c(nc(OCC56CCCN5CCC6)nc4N4CCC(O)CC(CO)C4)C3)c12 (single isomer, unassigned) [Example 172]
II = CCc1cccc2cccc(N3CCc4c(nc(OCC56CCCN5CCC6)nc4N4CCC(O)CC(CO)C4)C3)c12 (single isomer, unassigned) [Example 173]
Parameter metric = IC50. Return the lower-valued option from I and II . // caller expects the label of the chosen entry
I

a = CCc1cccc2cccc(N3CCc4c(nc(OCC56CCCN5CCC6)nc4N4CCCn5nc(CO)cc5C4)C3)c12
b = CCc1cccc2cccc(N3CCc4c(nc(OCC56CCCN5CCC6)nc4N4CCCC(NC(=O)N(C)C)C4)C3)c12 (stereo not drawn)
I would appreciate it if you could say which entry, a or b , has the lower IC50 value. Kindly give the label for the entry you pick.
a

----------
assayedTarget: KRas^G12D (Homo sapiens, UniProt P01116, G12D)
Construct: […]; biotin (biotinylated)
Sequence (P01116 1-169 isoform P01116-2 G12D): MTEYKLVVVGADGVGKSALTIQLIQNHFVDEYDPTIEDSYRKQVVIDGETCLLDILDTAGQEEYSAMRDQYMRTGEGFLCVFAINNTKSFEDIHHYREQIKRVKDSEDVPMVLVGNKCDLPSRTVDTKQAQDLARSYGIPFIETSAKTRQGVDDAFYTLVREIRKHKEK
test: KRas binding assay (TR-FRET displacement of Cy5 labelled tracer)
pIC50: −log10 of the molar value.
metricName: pIC50

Recorded results for 10 compounds are shown here.
CCc1cccc2cccc(N3CCc4c(nc(OCC56CCCN5CCC6)nc4N4CCCC(c5n[nH]cc5NC(C)=O)C4)C3)c12 (centres unmarked)
5.23
CN1CCC[C@H]1COc1nc2c(c(N3C[C@@H]4C(=O)NC(=O)[C@@H]4C3)n1)CCN(c1cccc3cccc(Cl)c13)C2
6.03
CCc1cccc2cccc(N3CCc4c(nc(OCC56CCCN5CCC6)nc4N4CC(C)CC(CO)C4)C3)c12 (centres unmarked)
6.02
CCc1c(F)ccc2cc(O)cc(N3CCc4c(nc(OC[C@@]56CCCN5C[C@H](F)C6)nc4N4CCCc5ncccc5C4)C3)c12
8.40
CCc1cccc2cccc(N3CCc4c(nc(OCC56CCCN5CCC6)nc4N4CCOCC(O)C4)C3)c12 (centres unmarked)
6.51
CCc1cccc2cccc(N3CCc4c(nc(OCC56CCCN5CCC6)nc4N4CCCC(c5ccn[nH]5)C4)C3)c12 (centres unmarked)
5.52
CCc1cccc2cccc(N3CCc4c(nc(OCC56CCCN5CCC6)nc4N4CCCn5nc(CO)cc5C4)C3)c12
7.37
Oc1cc(N2CCc3c(nc(OC[C@@]45CCCN4C[C@H](F)C5)nc3N3CC4CC(O)C(C4)C3)C2)c2c(Cl)c(F)ccc2c1 (some centres unmarked)
7.70
CCc1cccc2cccc(N3CCc4c(nc(OCC56CCCN5CCC6)nc4N4CCCc5ncccc5C4)C3)c12
5.94
CCc1cccc2cccc(N3CCc4c(nc(OCC56CCCN5CCC6)nc4NCc4c5c(n[nH]c4=O)CCCC5)C3)c12
4.65

a = CCc1cccc2cccc(N3CCc4c(nc(OCC56CCCN5CCC6)nc4N4CCOCC(CO)C4)C3)c12 (centres unmarked)
b = CCc1cccc2cccc(N3CCc4c(nc(OCC56CCCN5CCC6)nc4N4C[C@@H]5C(=O)NC(=O)[C@@H]5C4)C3)c12
Which gives the smaller pIC50 number: a or b ? Answer format: the label of the selected item.
a
(a: 6.32, b: 7.66)

----------
assayedTarget: KRas^Q61H (Homo sapiens, UniProt P01116, Q61H)
Sequence (P01116 1-169 isoform P01116-2 Q61H): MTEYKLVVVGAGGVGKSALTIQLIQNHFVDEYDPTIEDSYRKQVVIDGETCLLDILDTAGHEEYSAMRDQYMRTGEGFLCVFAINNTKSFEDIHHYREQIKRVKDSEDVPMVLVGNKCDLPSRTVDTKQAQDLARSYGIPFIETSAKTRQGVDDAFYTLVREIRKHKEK
test: biochemical
metricName: IC50 (nM)

CCc1cccc2cccc(N3CCc4c(nc(OCC56CCCN5CCC6)nc4N4CCCCCC(S(C)(=O)=O)C4)C3)c12 (stereo not shown)
135

a = CCc1cccc2cccc(N3CCc4c(nc(OCC56CCCN5CCC6)nc4N4CCCC(c5n[nH]c(C)n5)C4)C3)c12 (stereo not shown)
b = CCc1cccc2cccc(N3CCc4c(nc(OCC56CCCN5CCC6)nc4NCc4c5c(n[nH]c4=O)CCCC5)C3)c12
Given a and given b , which shows the smaller recorded IC50? Answer format: the label of the selected item.
a

----------
System: MKN1 cells, pERK
test: Inhibition of KRas phosphorylation of ERK (Cisbio HTRF Advanced pERK assay)
Format: cell-based
condition: Homo sapiens, MKN-1, 3 h, read-out: Inhibition (HTRF IC50 nM) of KRas-mediated Phosphorylation of ERK, MKN1
metricName: IC50 (nM)

Consider the worked cases shown below.
CCc1c(F)ccc2cc(O)cc(N3CCc4c(nc(OC[C@@]56CCCN5C[C@H](F)C6)nc4N4CCCC5(CC(O)C5)C4)C3)c12 (stereo partly drawn)
29
CCc1c(F)ccc2cc(O)cc(N3CCc4c(nc(OC[C@@]56CCCN5C[C@H](F)C6)nc4N4CCCc5ncccc5C4)C3)c12
462
CCc1c(F)ccc2cc(O)cc(N3CCc4c(nc(OC[C@@]56CCCN5C[C@H](F)C6)nc4N4CCCn5nc(C(=O)N6CCCC6)cc5C4)C3)c12
10

1 = CCc1c(F)ccc2cc(O)cc(N3CCc4c(nc(OC[C@@]56CCCN5C[C@H](F)C6)nc4N4CCOCC(CO)C4)C3)c12 (stereo partly drawn)
2 = O=C1NC(=O)C2CN(c3nc(OC[C@@]45CCCN4C[C@H](F)C5)nc4c3CCN(c3cc(O)cc5ccc(F)c(Br)c35)C4)CC12 (stereo partly drawn)
3 = CCc1c(F)ccc2cc(O)cc(N3CCc4c(nc(OCC5(CN(C)C)CC5)nc4N4CCCC5(CNS(=O)(=O)N5)C4)C3)c12 (stereo not drawn)
Reorder the items by IC50, least to greatest. Labels, ranked as asked.
2, 1, 3
(2: 7 nM, 1: 26 nM, 3: 101 nM)

I = C[C@@]1(O)CCCN(c2nc(OC[C@@]34CCCN3C[C@H](F)C4)nc3c2CCN(c2cc(O)cc4ccc(F)c(Br)c24)C3)C1
II = O=C1NCC2(CCCN(c3nc(OC[C@@]45CCCN4C[C@H](F)C5)nc4c3CCN(c3cc(O)cc5ccc(F)c(Br)c35)C4)C2)N1 (stereo partly drawn)
III = CCc1c(F)ccc2cc(O)cc(N3CCc4c(nc(OC[C@@]56CCCN5C[C@H](F)C6)nc4N4CCCn5nc(C(=O)N(C)C)c(F)c5C4)C3)c12
Sequence the entries by IC50, beginning with the highest number. Please reply with the labels ordered as requested. Many thanks.
I, II, III

1 = O=C1CC2(CCCN(c3nc(OC[C@@]45CCCN4C[C@H](F)C5)nc4c3CCN(c3cc(O)cc5ccc(F)c(Br)c35)C4)C2)N1 (stereo partly drawn)
2 = CC1(O)COCCN(c2nc(OC[C@@]34CCCN3C[C@H](F)C4)nc3c2CCN(c2cc(O)cc4ccc(F)c(Br)c24)C3)C1 (stereo partly drawn)
Given 1 and 2 , report the one with the higher recorded IC50. Pick one and reply with its label.
2

----------
assayedTarget: KRas^Q61H (Homo sapiens, UniProt P01116, Q61H)
test: biochemical
metricName: IC50 (nM)

CCc1cccc2cccc(N3CCc4c(nc(OCC56CCCN5CCC6)nc4N4CCCC(NC(=O)N(C)C)C4)C3)c12 (stereo not shown)
963

a = CCc1cccc2cccc(N3CCc4c(nc(OCC56CCCN5CCC6)nc4N4CCCC(c5nc(N)n(C)n5)C4)C3)c12 (stereo not shown)
b = CCc1cccc2cccc(N3CCc4c(nc(OCC56CCCN5CCC6)nc4N4CCC(n5ccnn5)CC4)C3)c12
c = CCc1cccc2cccc(N3CCc4c(nc(OCC56CCCN5CCC6)nc4NCc4cccnc4-n4cncn4)C3)c12
Task field, ranking: reported IC50, descending order. Your answer should be the labels, listed in the requested order.
c, b, a
(c: 7250 nM, b: 4580 nM, a: 734 nM)
